Source: PubChem BioAssay AID2060492

# Tested on: 695427-040-R-J1-PDC complex spheroids, viability percent T/C;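 further: spheroids exposed to compounds for seven days before readout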
# procedureSummary: Anticancer human tumor 695427-040-R-J1-PDC patient-derived colon adenocarcinoma cell line growth inhibition [GQUAD]
# assayConditions: second compound 10 µM; first compound 0.0999 µM; hits give low values
Would you kindly list viability, T/C for each of these molecules?
Answers are plain numbers, in %.

Solved cases (5 shown):
| molecule | recordedMetric | reportedResult |
| --- | --- | --- |
| CCc1c2c(nc3ccc(O)cc13)-c1cc3c(c(=O)n1C2)COC(=O)[C@]3(O)CC + Cc1cnc(CNC(=O)c2c(=O)c3ccc(N4CCCN(C)CC4)nc3n3c2sc2ccccc23)cn1 | viability, T/C | 9.89 |
| CC[C@@]1(O)C(=O)OCc2c1cc1n(c2=O)Cc2cc3c(CN(C)C)c(O)ccc3nc2-1 + CN(C)c1ccc(Nc2c3ccc(NC(=O)CCN4CCCC4)cc3nc3cc(NC(=O)CCN4CCCC4)ccc23)cc1 | viability, T/C | 91 |
| Cn1ncnc1[C@H]1c2n[nH]c(=O)c3cc(F)cc(c23)N[C@@H]1c1ccc(F)cc1 + CN(C)c1ccc(Nc2c3ccc(NC(=O)CCN4CCCC4)cc3nc3cc(NC(=O)CCN4CCCC4)ccc23)cc1 | viability, T/C | 96.4 |
| CC[C@@]1(O)C(=O)OCc2c1cc1n(c2=O)Cc2cc3c(CN(C)C)c(O)ccc3nc2-1 + Cc1[nH]c2ccc(F)cc2c1-c1nc2c3cccnc3c3ncccc3c2[nH]1 | viability, T/C | 89.5 |
| Cn1ncnc1[C@H]1c2n[nH]c(=O)c3cc(F)cc(c23)N[C@@H]1c1ccc(F)cc1 + Cc1[nH]c2ccc(F)cc2c1-c1nc2c3cccnc3c3ncccc3c2[nH]1 | viability, T/C | 82.7 |

### Prompt Suppose we examine the molecule Cc1[nH]c2ccccc2c1CCNCc1ccc(/C=C/C(=O)NO)cc1 + CN(C)c1ccc(Nc2c3ccc(NC(=O)CCN4CCCC4)cc3nc3cc(NC(=O)CCN4CCCC4)ccc23)cc1 ; what viability, T/C value has been reported?
### Response 91.1
